Every entry's value here was drawn from patent US20180237497A1.

- Target or test system: T1, human IGF2^1-67 (mature insulin-like growth factor 2) (human, UniProt P01344 25-91, biotinylated (site not stated) where immobilised on the chip (Tables 1-4))
- T1 construct: mature; also called mature IGF2; biotinylated IGF2
- T1 sequence (P01344 25-91): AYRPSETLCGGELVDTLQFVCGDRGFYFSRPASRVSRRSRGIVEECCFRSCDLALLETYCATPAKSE
- Experiment notes: SPR kinetic, biotin-IGF2 on chip, pH 6.5
Measured Kd by item
Measurement name: Kd (nM)

Binder	Numeric value
domain 11^AB5 Q1569R P1597H S1602H (receptor, See m5) MKSNEHDDCQVTNPSTGHLFDLSSLSGRAGFTAAYAKGWGVYMSICGENENCPPGVGACFGRTRISVGKANKRLRYVDQVLQLVYKDGSHCPSKHGLSYKSVISFVCRPEAGPTNRPMLISLDKQTCTLFFSWHTPLACEQATECSV	0.71
domain 11^AB5 P1597H S1602H (receptor, See m5) MKSNEHDDCQVTNPSTGHLFDLSSLSGRAGFTAAYAKGWGVYMSICGENENCPPGVGACFGQTRISVGKANKRLRYVDQVLQLVYKDGSHCPSKHGLSYKSVISFVCRPEAGPTNRPMLISLDKQTCTLFFSWHTPLACEQATECSV	0.62
IGF2R domain 11^AB5 (receptor, His6-tagged soluble domain 11; also called 1542YAKGWG1547) MKSNEHDDCQVTNPSTGHLFDLSSLSGRAGFTAAYAKGWGVYMSICGENENCPPGVGACFGQTRISVGKANKRLRYVDQVLQLVYKDGSPCPSKSGLSYKSVISFVCRPEAGPTNRPMLISLDKQTCTLFFSWHTPLACEQATECSV	4.38
domain 11^AB5 Q1569R P1597H (receptor, See m5) MKSNEHDDCQVTNPSTGHLFDLSSLSGRAGFTAAYAKGWGVYMSICGENENCPPGVGACFGRTRISVGKANKRLRYVDQVLQLVYKDGSHCPSKSGLSYKSVISFVCRPEAGPTNRPMLISLDKQTCTLFFSWHTPLACEQATECSV	1.46
